I'd appreciate it if you could supply inhibition at 10 µM values for the items below.
# Test target: TLR9 (Homo sapiens, UniProt Q9NR96)
# Construct: expressed in transfected cells; host or cells: HEK293
# Measurement description: TLR9 screening of (+)-morphinan library, SEAP reporter in HEK293 cells expressing TLR9
# Assay type: cell-based
# Test parameters: HEK293, read-out: % Inhibition (mean), 10 μM; activator ODN2006
Give bare numbers, in %.

{"columns": ["Molecule", "inhibition at 10 µM (%)"],
 "data": [
  ["C=CCN1CC[C@@]23c4c5ccc(OC)c4O[C@@H]2C(=C)CC[C@@H]3[C@@H]1C5", 47],
  ["C=CCN1CC[C@@]23c4c5ccc(OC)c4O[C@@H]2C(=C)CC[C@]3(O)[C@@H]1C5", 41]
]}

Record inhibition at 10 µM for all entries; do not skip any.
1. COC1=C[C@]2(O)[C@@H]3Cc4ccc(OC)c(O)c4[C@]2(CCN3C)CC1=O
2. C=CCN1CC[C@@]23c4c5ccc(OC)c4O[C@@H]2[C@H](O)CC[C@]3(O)[C@@H]1C5 (stereo in doubt)

Result:
1: 33; 2: 13

====

# Test target: TLR9 (Homo sapiens, UniProt Q9NR96)
# Construct: expressed in transfected cells; host or cells: HEK293
# Sequence (Q9NR96 26-1032): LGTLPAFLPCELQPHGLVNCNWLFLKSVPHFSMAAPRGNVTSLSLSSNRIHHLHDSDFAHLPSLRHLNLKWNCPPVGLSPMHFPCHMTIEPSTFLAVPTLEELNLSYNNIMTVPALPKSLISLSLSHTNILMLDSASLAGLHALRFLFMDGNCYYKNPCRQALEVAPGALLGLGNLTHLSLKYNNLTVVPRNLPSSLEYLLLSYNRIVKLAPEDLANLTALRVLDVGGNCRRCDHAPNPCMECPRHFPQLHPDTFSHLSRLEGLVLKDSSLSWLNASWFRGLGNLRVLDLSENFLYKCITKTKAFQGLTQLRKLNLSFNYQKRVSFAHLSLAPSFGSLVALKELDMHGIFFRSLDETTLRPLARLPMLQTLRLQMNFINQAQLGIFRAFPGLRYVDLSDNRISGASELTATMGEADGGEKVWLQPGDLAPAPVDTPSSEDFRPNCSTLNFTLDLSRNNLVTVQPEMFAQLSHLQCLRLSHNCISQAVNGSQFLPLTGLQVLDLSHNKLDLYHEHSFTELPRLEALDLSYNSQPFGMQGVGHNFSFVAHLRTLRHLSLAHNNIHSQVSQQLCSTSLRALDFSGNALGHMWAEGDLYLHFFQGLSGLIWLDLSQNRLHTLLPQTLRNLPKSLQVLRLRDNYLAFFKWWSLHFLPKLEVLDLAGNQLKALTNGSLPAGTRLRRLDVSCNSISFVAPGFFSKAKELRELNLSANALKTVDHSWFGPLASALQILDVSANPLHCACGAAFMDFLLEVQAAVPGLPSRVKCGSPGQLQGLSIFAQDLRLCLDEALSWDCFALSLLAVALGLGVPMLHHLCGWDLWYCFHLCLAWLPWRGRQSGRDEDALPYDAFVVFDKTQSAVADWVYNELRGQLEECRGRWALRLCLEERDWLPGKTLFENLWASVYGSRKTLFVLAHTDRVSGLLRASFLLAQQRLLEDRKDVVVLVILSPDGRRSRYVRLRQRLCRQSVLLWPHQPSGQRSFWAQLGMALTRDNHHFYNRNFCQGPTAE
# Measurement description: TLR9 screening of (+)-morphinan library, SEAP reporter in HEK293 cells expressing TLR9
# Type: cell-based
# Test parameters: 10 μM; activator ODN2006; control (no activator) 0.14, activator 1.42 OD
Endpoint name: OD 650 nm (mean ± sd)

As a guide, the following entries are already answered.
{"columns": ["Compound", "Readout value"],
 "data": [
  ["COc1ccc2c3c1O[C@@H]1C(O)CC[C@]4(O)[C@H](C2)N(CC2CC2)CC[C@@]314 (single isomer, unassigned) [II-53a]", "1.32 ± 0.13 OD"],
  ["C=CCN1CC[C@@]23c4c5ccc(OC)c4O[C@@H]2C2(CC[C@@H]3[C@@H]1C5)OCCO2 [II-89]", "1.08 ± 0.02 OD"],
  ["COc1ccc2c3c1O[C@@H]1C(=O)CC[C@@H]4[C@H](C2)N(Cc2ccccc2)CC[C@@]314 [II-29]", "0.33 ± 0.03 OD"],
  ["NC1CC[C@]2(O)[C@@H]3Cc4ccc(O)c5c4[C@]2(CCN3CC2CC2)[C@@H]1O5 (stereo partly drawn) [II-71]", "0.10 ± 0.00 OD"],
  ["CN(C(=O)/C=C/c1ccoc1)[C@H]1CC[C@]2(O)[C@@H]3Cc4ccc(O)c5c4[C@]2(CCN3CC2CC2)[C@@H]1O5 [II-62]", "0.18 ± 0.01 OD"]
]}

Record OD 650 nm (mean ± sd) for all entries; do not skip any.
1. COc1ccc2c3c1O[C@@H]1C(=O)CC[C@@H]4[C@H](C2)N(C(C)=O)CC[C@@]314 [II-31]
2. COC1=CC=C2[C@@H]3Cc4ccc(OC)c5c4[C@]2(CCN3C)[C@@H]1O5 [II-34]
3. COc1ccc2c3c1O[C@@H]1C(O)CC[C@@H]4[C@H](C2)N(CC2CC2)CC[C@@]314 (stereo partly drawn) [II-17]
4. COC1=CCC2[C@@H]3Cc4ccc(OC)c5c4[C@]2(CCN3)[C@@H]1O5 (stereo partly drawn) [II-98]
5. [O-][N+]1(CC2CC2)CC[C@@]23c4c5ccc(O)c4O[C@@H]2[C@H](O)CC[C@]3(O)[C@@H]1C5 (stereo partly drawn) [II-90]

Result:
1: 1.37 ± 0.11 OD; 2: 0.94 ± 0.08 OD; 3: 0.39 ± 0.01 OD; 4: 0.56 ± 0.03 OD; 5: 0.17 ± 0.05 OD

Record OD 650 nm (mean ± sd) for all entries; do not skip any.
1. Oc1ccc2c3c1O[C@@H]1[C@H](O)CC[C@]4(O)[C@H](C2)N(CC2CCC2)CC[C@@]314 [II-82]
2. COc1ccc2c(c1O)[C@@]13CCN(CC4CCC4)[C@@H](C2)C1CCC(=O)C3 (stereo partly drawn) [Compound I-29]
3. COc1ccc2c3c1O[C@@H]1C(=O)CC[C@]4(O)[C@H](C2)N(C)CC[C@@]314 [II-39]
4. C=CCN1CC[C@@]23c4c5ccc(OC)c4O[C@@H]2C(=C)CC[C@]3(O)[C@@H]1C5 [II-51]
5. O=C1CC[C@@H]2[C@@H]3Cc4ccc(OCc5ccccc5)c5c4[C@]2(CCN3CC2CC2)[C@@H]1O5 [II-88]
6. COc1cc(Br)c2c(c1O)[C@@]13CCN(CC4CC4)C(C2)C1CCC(=O)C3 (stereo partly drawn) [Compound I-2]
7. COc1ccc2c3c1O[C@@H]1C(OC)(OC)C(Br)CC4[C@H](C2)N(C)CC[C@]341 (stereo partly drawn) [II-101]

Result:
["0.49 ± 0.03 OD", "0.11 ± 0.00 OD", "1.06 ± 0.06 OD", "0.84 ± 0.05 OD", "0.13 ± 0.01 OD", "0.14 ± 0.02 OD", "0.94 ± 0.02 OD"]
